Test: LAP4-GFP expression modulators in yeast, confirmation, cell-based, cherry picks, flow cytometry, mother/daughter gates (AID 2271);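 also: ratio of sample to DMSO plate mean so 100% equals DMSO level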
Conditions: S. cerevisiae LAP4-GFP strain, 3 h, measured here: daughter cell gate response, at 10 µM, stronger effect = higher value, 100 means same as DMSO control
Field: GFP response relative to DMSO. Provide a value for each of the compounds that follow.
Dear colleague, please return just the value in %, with no unit written.

Query: Need GFP response relative to DMSO, item COc1ccc(C2=NN(S(C)(=O)=O)C(c3ccc4nccnc4c3)C2)cc1 (stereo unspecified)
Response: 103

Query: Same question for Cc1cccc(NC(=O)/C(C#N)=C/c2ccccc2Cl)n1 please.
Response: 133

Query: Follow-up item: O=C(O)c1ccn2c(C(=O)c3ccccc3)c(-c3ccccc3)cc2c1
Response: 112

Query: Moving on to the next compound: O=C(Nc1nccs1)C1CCCN1S(=O)(=O)c1ccc(F)cc1 (stereo unspecified)
Response: 100

Query: Also check O=C(Nc1ccccc1C(=O)O)c1ccccc1
Response: 102

Query: Try this compound too: Cc1cccn2c(=O)c(/C=C(\C#N)C(N)=O)c(N3CCN(Cc4ccc5c(c4)OCO5)CC3)nc12
Response: 103

Query: What do you have for COc1ccc(NC(=O)CCN2CCN(S(=O)(=O)c3cc(Cl)ccc3OC)CC2)cc1 ?
Response: 98.2

Query: Now consider CCc1noc(C)c1C(=O)Nc1nc2ccc(OC)cc2s1 and answer again.
Response: 108

Query: Next compound: CCc1ccc(OCC(=O)NNC(=S)NC(=O)C2CC2)c(Br)c1
Response: 164

Query: Also CC(=O)Nc1ccc(S(=O)(=O)NC(CC(=O)NCCC2=CCCCC2)C(C)C)cc1 (stereo unspecified) ?
Response: 99.2

Query: Another compound: Cc1ccccc1N1C(=O)c2sc3nc4c(c(=O)n3c2C1=O)CCC4
Response: 107

Query: Try this compound too: CCc1ccc(C(=O)/C=C/c2ccc([N+](=O)[O-])o2)cc1
Response: 141

Query: Another compound to check: CCCn1c(=O)c(C(=O)Nc2ccccc2C(=O)OCC)c(O)c2ccccc21
Response: 94.4

Query: Another compound to look at: Nc1c(C(=O)c2cccs2)sc2nsc(SCCN3CCCCC3)c12
Response: 128

Query: Try the compound O=C(/C=C/c1ccnc2ccccc12)c1cccs1
Response: 156

Query: Do the same for O=C(CS(=O)c1ccccc1[N+](=O)[O-])Oc1ccc(Br)cc1 (stereo unspecified) please
Response: 167

---

Assay: promoters of myeloid differentiation in arrested cells, primary screen, cell-based, GFP/MAC1 double positive, flow cytometry, validation set (AID 588685);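 also: compound exposure lasts four days before antibody staining and flow analysis; 0% = DMSO wells and 100% = 5 µM fulvestrant positive control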
Conditions: ER-HoxA9 marrow cells, stronger effect = higher value, normalized: vehicle 0, fulvestrant 100
So I've got a bunch of compounds here, and I need their differentiation response values.
I only need the number, in %, no unit after it.

Query: Request the reported differentiation response associated with Oc1ccc(Cl)cc1Cc1cc(Cl)ccc1O
Response: 4.2

Query: Subsequent entry: CN1CCCC(OC(=O)c2ccc3c(c2)OCCO3)C1 (centres undefined)
Response: 1.41

Query: Also check C[C@H](NC(=O)Nc1ccccc1F)C(=O)O
Response: -10.4

Query: Moving on to O=C(/C=C/c1ccccc1)/C=C/c1ccccc1
Response: -16.8

Query: Repeat with C#CCN(C)CCCOc1ccc(Cl)cc1Cl
Response: -1.64

Query: Please give the result for Cc1nc2sccn2c(=O)c1CCN1CCC(=C(c2ccc(F)cc2)c2ccc(F)cc2)CC1 too.
Response: -4

Query: What do you have for CN(C)c1cc(NC(=O)CN2CCOCC2)c2ccccc2n1 ?
Response: -3.28

Query: Then COc1ccc(-c2nc(C)c(C(C)=O)n2O)cc1OC ?
Response: 0

Query: Same for COc1ccc(-c2coc3cc(OC(=O)N4CCOCC4)ccc3c2=O)cc1
Response: 19.2

Query: Same question, CC1(C)CC(CC(=O)Nc2nccs2)(c2ccccc2)CCO1 (centres undefined) this time
Response: 1.41

Query: Proceed to CC(C)NCC(O)COc1ccc(CCOCC2CC2)cc1 (centres undefined)
Response: 7.13

Query: Can you handle CSc1ccc2c(c1)N(CCC1CCCCN1C)c1ccccc1S2 (centres undefined) next?
Response: 11.5

Query: // same read-out, input: COc1ccc(/C=N\NC(=O)CCc2c(C)n[nH]c2C)c(OC)c1OC
Response: 4

Query: Try the compound CC(C)OC(=O)C(C)(C)Oc1ccc(C(=O)c2ccc(Cl)cc2)cc1
Response: -13.1

Query: Please do the same for O=C(O)c1ccccc1O as well.
Response: -9.89

Query: Try Cc1ncc([N+](=O)[O-])n1CC(O)CCl (centres undefined) next.
Response: -0.2

Query: Next compound: COc1ccc(C(=O)/C=C/c2ccc(OC(=O)c3cc(OC)c(OC)c(OC)c3)cc2)cc1
Response: 20.6

Query: Please do the same for COc1cc2c3c(c1)C1(C(=O)N3C(C)(C)C=C2C)C(C#N)=C(N)Oc2cc(C)oc(=O)c21 (centres undefined) as well.
Response: 79.2

Query: Input COc1cc2c(cc1OC)C(c1cc(OC)c(OC)c(OC)c1)NCC2 (centres undefined)
Response: -14.7
